// values below are reported phage binding ELISA signal
Molecular target: T1, PSMA Fab
T1 construct: also called Anti-PSMA Fab; 006 PSMA Fab
Test: phage binding ELISA; biotinylated PSMA Fab on neutravidin plate, clonal phage supernatant, anti-M13 HRP detection; column read as anti-PSMA Fab without PSMA antigen
Where no end group is shown, it is not given here.
Could you keep your reply to the number by itself?

binder: MIGWCTPSWMCSGF [Phage-2588]
phage binding ELISA signal: 1.06

Find the measured phage binding ELISA signal of ETKLCKPMWMCALL (cysteine pairing not given here; also: displayed on phage as pIII fusion) [Phage-2602] and report it.
1.03

Find the measured phage binding ELISA signal of GMKWCTPEWMCQIV [Phage-2603] and report it.
1.03
